Would you mind telling me the reported exon inclusion enrichment index of each entry?
B1: mRNA-splicing (parent)
chain: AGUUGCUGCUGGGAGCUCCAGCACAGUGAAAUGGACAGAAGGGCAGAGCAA

Variants of: B1
Test description: exon inclusion enrichment index; higher = more inclusion; WT1 exon 5 minigene, HEK293

Q: Recorded exon inclusion enrichment index for ACUUCGCGCCGGGAGCUCCAGCACAGUGAAAUGGACAGAAGGGCAGAGCAA [G2C G5C C6G U7C U10C] , please?
A: 2.87

Q: One more variant: AGUUCGCGCCGGGAGCUCCAGCACAGUGAAAUGGACAGAAGGGCAGCUCAA [G5C C6G U7C U10C A47C G48U]
A: 2.62

Q: One more variant: AGUUCGCGCCGGGAGCUCCAGCACAGUGAAAUGGCCAGAAGGGCAGAGCAA [G5C C6G U7C U10C A35C]
A: 1.69

Q: One more variant: AGUUACCACCGUCAGCUCCAGCACAGUGAAAUGGACAGAAGGGCAGAGCAA [G5A U7C G8A U10C G12U G13C]
A: 0.477

Q: One more variant: AGUUCACACAGGGACGUCCAGCACAGUGAAAUGGACAGAAGGGCAGAGCAA [G5C C6A U7C G8A U10A G15C C16G]
A: 0.0998

Q: One more variant: AGUUUCUUUUGGGAGCUCCAGCACAGUGAAAAUGACAGAAGGGCAGAGCAA [G5U G8U C9U U32A G33U]
A: 0.0405

Q: One more variant: AGUUAGGGAUGUAAGCUCCAGCACAGUGAAAUGGACAGAAGGGCAGAGCAA [G5A C6G U7G C9A G12U G13A]
A: 0.000517

Q: One more variant: AGUUGCUGCUGGGAGCUCCAGCACCCUGAAAUGGACAGAAGGGCAGAGCAA [A25C G26C]
A: 0.435

Q: One more variant: AGUUCGCGCCGGGAGCUCCAGUCCAGUGAAAUGGACAGAAGGGCAGAGCAA [G5C C6G U7C U10C C22U A23C]
A: 2.02

Q: One more variant: AGUUGACGACGGGAGCUCCAGCACAGUGAAAUGGACAGAAAGGCAGAGCAA [C6A U7C C9A U10C G41A]
A: 2.41

Q: One more variant: AGUUAGGGAUGGGAGCUAAAGCACAGUGAAAUGGACAGAAGGGCAGAGCAA [G5A C6G U7G C9A C18A C19A]
A: 0.0013

Q: One more variant: AGUUCUUCUCGGGAGCUCCAGCACAGUGAAAACGACAGAAGGGCAGAGCAA [G5C C6U G8C C9U U10C U32A G33C]
A: 2.37

Q: One more variant: AGUUCGCGCCGGGAGCUCUGGCACAGUGAAAUGGACAGAAGGGCAGAGCAA [G5C C6G U7C U10C C19U A20G]
A: 1.14

Q: One more variant: AGUUGACGACGGGAGCUCCAGCACAGUGAGGUGGACAGAAGGGCAGAGCAA [C6A U7C C9A U10C A30G A31G]
A: 1.7

Q: One more variant: AGUUCACACAGGGAGCUCCAGCACAGUGAAGCGGACAGAAGGGCAGAGCAA [G5C C6A U7C G8A U10A A31G U32C]
A: 0.646
